Data provenance: PubChem BioAssay (NCI)

System: HCT-116 colon
experimentDescription: NCI-60 one-dose screen, 48 h (100 = growth as untreated, 0 = no growth, -100 = all killed)
measurementConditions: 10 µM unless noted
About 83,000 compounds went through this panel and 20% of them were active in at least one assay; those are over-represented in the sample as a whole.
observable: growth (%)
Numeric only. Scale: %

Input: May I ask what growth has been recorded for `CCOC(=O)C(C#N)=C1CCN(C)CC1` ?
Output: 103

Continuing:
Input: May I ask what growth has been recorded for CC1CCC(C(C)(C)[N+](C)(C)C)CC1 (configuration not stated) ?
Output: 98.4

Input: May I ask what growth has been recorded for `Cc1ccc(C)c(CCO)c1` ?
Output: 107

Input: May I ask what growth has been recorded for `CN(C(=S)S(=O)(=O)C12CC3CC(CC(C3)C1)C2)c1ccccc1` ?
Output: 93.5

Input: May I ask what growth has been recorded for `CCC(=O)C1C(=O)c2ccccc2C1=O` ?
Output: 107

Input: May I ask what growth has been recorded for `Ic1cccs1` ?
Output: 103

Input: May I ask what growth has been recorded for `O=[N+]([O-])c1c(Cl)ncnc1Cl` ?
Output: 115
